Origin of values: paper doi:10.1101/2025.01.30.635804

Target: five FABLE Designs
Assay: Cou485 fluorescence and binding with the five designed FABLE proteins (stated collectively)
Conditions: all five designed proteins
Readout kind: Kd

Q. Form field: reported Kd of CN(C)c1ccc2c(C(F)(F)F)cc(=O)oc2c1 [Cou485]
A. < 100 µM

---

Molecular target: FABLE
Test: Fluorescence titration of FABLE into coumarin fluorophores (single-site model, global fit)
Details: FABLE titrated into two fixed fluorophore concentrations, PBS, global single-site fit
Catalogue of pKd readings, one per entry.
Remember, pKd is on a log scale: it is -log10 of the molar concentration.

INSERT INTO results (compound, value_measured) VALUES
  ('CN(C)c1ccc2c(C(F)(F)F)cc(=O)oc2c1', 4.56),
  ('CCN(CC)c1ccc2c(C(F)(F)F)cc(=O)oc2c1', 5.24);

Q. Which pKd value belongs to O=c1cc(C(F)(F)F)c2cc3c4c(c2o1)CCCN4CCC3 [Cou540a] ?
A. 5.70

---

Test system: ABLE
Test: Crystallographic fragment screening of ABLE crystals (PanDDA)
Format: binding
Conditions: PanDDA event 1, 1 - background density correction
Readout kind: 1-BDC
Please state the value as a number alone, without comment.

Q. Entry under review: CCCc1ccc(S(N)(=O)=O)cc1 . Reported 1-BDC?
A. 0.38

Q. I am curious: what 1-BDC value has been reported for Oc1ccc2[nH]ccc2c1 ?
A. 0.21

Q. Tell me the measured 1-BDC of O=C(O)CCc1nc2cc(Cl)ccc2s1 , please.
A. 0.2

---

Tested on: ABLE
Assay: Crystallographic fragment screening of ABLE crystals (PanDDA)
Type: binding
Settings: PanDDA event 1, 1 - background density correction
Readout kind: 1-BDC
Returns: the value as a bare number; no unit string appended.

// below: answered compounds
INSERT INTO results (line_notation, readout_kind, value_measured) VALUES
  ('Oc1ccc2c(c1)OCO2', '1-BDC', 0.38),
  ('O=C(O)CCc1ccccc1', '1-BDC', 0.11);

Q. Report 1-BDC for O=C(O)c1ccc(Br)cc1 tested on ABLE.
A. 0.34

Q. Look up 1-BDC with ABLE for this compound: Cn1ncc(C(=O)O)c1-c1ccccc1
A. 0.18

Q. State its 1-BDC on ABLE: OCc1cccc2c1OCCO2
A. 0.36

Q. Enter reported 1-BDC observed with ABLE for NS(=O)(=O)c1cc(Cl)cc(Cl)c1
A. 0.6

---

Tested on: ABLE
Test: Crystallographic fragment screening of ABLE crystals (PanDDA)
Format: binding
Conditions: PanDDA event 1, 1 - background density correction
1-BDC values, listed per item
Returns: the value as a bare number; no unit string appended.

These recorded examples may help you get a feel for the data.
INSERT INTO measurements (line_notation, tested_target, readout_kind, value_measured) VALUES
  ('Cc1ccccc1S(N)(=O)=O', 'ABLE', '1-BDC', 0.13),
  ('Nc1ccc2c(c1)S(=O)(=O)C=C2', 'ABLE', '1-BDC', 0.31);

Attention now shifts to the item below.
Q. // returns reported 1-BDC for input Nc1ccc2oc(=O)ccc2c1
A. 0.21

---

Each entry below carries its reported 1-BDC.
System: ABLE
Experiment: Crystallographic fragment screening of ABLE crystals (PanDDA)
Assay type: binding
Conditions: PanDDA event 1, 1 - background density correction
Note: the reply should be a number with no unit written.

INSERT INTO assay_data (line_notation, value_measured) VALUES
  ('Nc1cccc(Oc2ccccn2)c1', 0.23),
  ('CCc1ccc(S(N)(=O)=O)cc1', 0.31),
  ('CC(=O)c1cccc(N)c1', 0.32);

Please examine the following record next.
Q. Provide the documented 1-BDC with ABLE as the system for COc1ccc(S(N)(=O)=O)cc1
A. 0.42
